# OD450 per entry
- Target Desc: T1, VLP-hCLDN6 (human) (UniProt P56747)
- T1 sequence: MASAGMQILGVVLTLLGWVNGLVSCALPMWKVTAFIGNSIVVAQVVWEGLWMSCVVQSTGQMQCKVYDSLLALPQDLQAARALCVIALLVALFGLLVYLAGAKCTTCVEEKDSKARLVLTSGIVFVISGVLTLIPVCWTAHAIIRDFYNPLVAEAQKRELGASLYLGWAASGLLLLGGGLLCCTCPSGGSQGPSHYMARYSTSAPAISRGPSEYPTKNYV
- Assay Name: ELISA, coated VLP-hCLDN6, 10 ul antibody sample, HRP-Protein A

Some binders with recorded OD450:
humanized antibody hAb-6 (antibody, V domains shown) VH: EVKLVESGGGLVKPGGSLRLSCAASGFTFNSYTMSWVRQAPGKRLEWVVTISSGGGRTYYPDSVKGRFTISRDNAKNTLYLQMSSLRAEDTAVYYCIRGDYRYDGFAYWGQGTLVTVSS VL: DIQMTQSPSSLSASVGDRVTITCRASENIDSYLAWYQQKPGKSPQLLVYASTLLQDGVPSRFSGSRSGTDFTLTISSLQPEDVATYYCQHYYSIPYTFGSGTKLEIK	0.89
humanized antibody hAb-21 (antibody, V domains shown) VH: EVKLVESGGGLVQPGGSLRLSCAASGFTFNSYTMSWVRQTPAKRLEWVVTISSGGGRTYYPDSVKGRFTISRDNAKNTLYLQMSSLRAEDTAVYYCIRGDYRYDGFAYWGQGTLVTVSS VL: DIQMTQSPSSLSASVGDRVTITCRASENIDSYLAWYQQKPGKSPQLLVYASTLLVDGVPSRFSGSRSGTQFSLTISSLQPEDVARYYCQHYYSIPYTFGSGTKLEIK	2.05
humanized antibody hAb-7 (antibody, V domains shown) VH: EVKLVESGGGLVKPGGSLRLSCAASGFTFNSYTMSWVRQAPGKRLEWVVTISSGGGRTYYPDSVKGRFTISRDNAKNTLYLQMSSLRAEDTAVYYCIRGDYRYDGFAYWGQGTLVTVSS VL: DIQMTQSPSSLSASVGDRVTITCRASENIDSYLAWYQQKPGKSPQLLVYASTLLQDGVPSRFSGSRSGTQFTLTISSLQPEDVARYYCQHYYSIPYTFGSGTKLEIK	1.37

Prompt: Endpoint output: OD450 of humanized antibody hAb-24 (antibody, V domains shown) VH: EVKLVESGGGLVKPGGSLRLSCAASGFTFNSYTMSWVRQTPAKRLEWVVTISSGGGRTYYPDSVKGRFTISRDNARNTLYLQMSSLRAEDTAVYYCIRGDYRYDGFAYWGQGTLVTVSS VL: DIQMTQSPSSLSASVGDRVTITCRASENIDSYLAWYQQKPGKSPQLLVYASTLLQDGVPSRFSGSRSGTQFTLTISSLQPEDFATYYCQHYYSIPYTFGSGTKLEIK . Value?
Response: 1.45

Prompt: Endpoint output: OD450 of humanized antibody hAb-17 (antibody, V domains shown) VH: EVKLVESGGGLVQPGGSLRLSCAASGFTFNSYTMSWVRQAPGKRLEWVVTISSGGGRTYYPDSVKGRFTISRDNAKNTLYLQMSSLRAEDTAVYYCIRGDYRYDGFAYWGQGTLVTVSS VL: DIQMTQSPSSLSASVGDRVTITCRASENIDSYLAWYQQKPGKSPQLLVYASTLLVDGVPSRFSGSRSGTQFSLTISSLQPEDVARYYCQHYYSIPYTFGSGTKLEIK . Value?
Response: 1.6
